# literature pull: UniProt:P12268 pIC50
// pIC50: -log10(molar conc.)

# molecule, pIC50
measured = [
    ("COc1cc2[nH]c(Cc3ccccc3)cc2cc1-c1cnco1", 6.22),
    ("O=C(/C=C/c1cccc(F)c1)Nc1ccc2c(c1)COC2=O", 5.35),
    ("CN(C)CCOc1ccc(C(C)(C)NC(=O)c2cc3[nH]c4ccccc4c(=O)c3cc2F)cc1", 7.70),
    ("O=C(COc1ccc(C(=O)/C=C/c2cccs2)cc1)Nc1ccc2c(c1)COC2=O", 5.34),
    ("COc1cc2nc(-c3cccc(C)c3)cc(O)c2cc1-c1cnco1", 8.30),
]

Input: Which pIC50 value belongs to COc1cc(Nc2cc(-c3ccccc3)on2)ccc1-c1cnco1 ?
Output: 6.92

Input: Which pIC50 value belongs to c1ccc(-c2cnc(Nc3ccc4cnccc4c3)o2)cc1 ?
Output: 8.30

Input: Which pIC50 value belongs to COc1cc2nc(-c3cc(C)ccc3C)cc(O)c2cc1-c1cnco1 ?
Output: 7.54
